# measured on: human dopamine D3 receptors (Homo sapiens)
# Sequence (P35462 whole entry): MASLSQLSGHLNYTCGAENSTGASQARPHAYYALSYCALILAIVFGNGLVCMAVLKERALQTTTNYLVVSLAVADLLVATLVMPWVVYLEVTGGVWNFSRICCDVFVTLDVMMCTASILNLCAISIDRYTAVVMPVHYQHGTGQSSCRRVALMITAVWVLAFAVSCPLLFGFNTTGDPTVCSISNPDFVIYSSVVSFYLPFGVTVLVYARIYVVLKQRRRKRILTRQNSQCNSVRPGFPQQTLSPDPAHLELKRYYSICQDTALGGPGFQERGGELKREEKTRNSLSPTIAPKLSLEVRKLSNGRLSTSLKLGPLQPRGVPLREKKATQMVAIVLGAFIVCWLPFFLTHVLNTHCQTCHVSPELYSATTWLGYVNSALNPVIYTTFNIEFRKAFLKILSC
value type: Ki

Which Ki is listed for CC(C)c1cc(N2CCN(CCC3CC(NC(=O)[C@H]4CC[C@H](O)CC4)C3)C[C@@H]2C)nc(C(C)(C)C)n1 (stereo partly drawn) ?
< 10 nM

// lookup Ki for CC(C)c1cc(N2CCN(CCC3CCC(NC(=O)[C@H]4C[C@H](O)C4)CC3)CC2)nc(C(C)(C)C)n1 (relative stereo)
< 10 nM

Give the measured Ki of CO[C@H]1C[C@H](C(=O)NC2CCC(CCN3CCN(c4cc(C(C)C)nc(C(C)(C)C)n4)CC3)CC2)C1 (relative stereo) .
< 10 nM

---

# measured on: human dopamine D2L receptors (long isoform) (Homo sapiens, UniProt P14416)
# Construct: expressed in transfected cells; host or cells: HEK-293
# Sequence (P14416 whole entry, canonical isoform): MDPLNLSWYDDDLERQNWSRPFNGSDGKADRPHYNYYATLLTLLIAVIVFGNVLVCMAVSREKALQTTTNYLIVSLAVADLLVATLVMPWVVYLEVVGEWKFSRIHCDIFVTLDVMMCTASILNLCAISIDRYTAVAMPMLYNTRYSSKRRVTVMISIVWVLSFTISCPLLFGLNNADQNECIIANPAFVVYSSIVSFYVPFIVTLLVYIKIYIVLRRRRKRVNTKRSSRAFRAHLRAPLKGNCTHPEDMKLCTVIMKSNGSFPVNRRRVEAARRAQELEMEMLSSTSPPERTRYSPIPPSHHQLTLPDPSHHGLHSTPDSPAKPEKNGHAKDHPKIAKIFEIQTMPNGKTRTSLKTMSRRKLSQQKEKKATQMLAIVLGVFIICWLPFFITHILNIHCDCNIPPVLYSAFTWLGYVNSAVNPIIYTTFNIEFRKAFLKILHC
# measurement protocol: Dopamine D2L receptor binding ([125I]iodospiperone displacement)
# condition description: selectivity ratio, human D2L vs human D3 binding
# Description: The substance to be tested was either dissolved in methanol/Chremophor® (BASF SE) or in dimethyl sulfoxide and then diluted with water to the desired concentration. Each assay mixture was run in triplicate. • The incubation buffer contained 50 mM tris, 120 mM NaCl, 5 mM KCl, 2 mM CaCl2, 2 mM MgCl2 and 0.1% bovine serum albumin, 10 μM quinolone and 0.1% ascorbic acid (prepared fresh daily). […]
value type: D2/D3, Ki (D2L)/Ki (D3)

compound	D2/D3, Ki (D2L)/Ki (D3)
CO[C@H]1C[C@H](C(=O)NC2CCC(CCN3CCN(c4cc(C(C)C)nc(C(C)(C)C)n4)CC3)CC2)C1 (relative stereo)	+++ (+++ >50)
COCCc1cc(N2CCN(CC[C@H]3CC[C@H](NC(=O)[C@H]4CC[C@H](O)CC4)CC3)CC2)nc(C(C)(C)C)n1	++ (++ >20)
CC(C)(C)c1nc(C2CCC2)cc(N2CCN(CC[C@H]3CC[C@H](NC(=O)[C@H]4CC[C@@H](O)CC4)CC3)CC2)n1.O=C(O)C(F)(F)F	++ (++ >20)
CC(C)c1cc(N2CCN(CCC3CCC(NC(=O)[C@H]4C[C@H](O)C4)CC3)C[C@@H]2C)nc(C(C)(C)C)n1 (stereo partly drawn)	+++ (+++ >50)
CC(C)(C)c1nc(C2CCC2)cc(N2CCN(CC[C@H]3C[C@H](NC(=O)[C@H]4CC[C@@H](O)CC4)C3)CC2)n1.O=C(O)C(F)(F)F	++ (++ >20)

Attention now shifts to the item below.
So what does the record say about D2/D3, Ki (D2L)/Ki (D3) for COCCc1cc(N2CCN(CC[C@H]3C[C@@H](NC(=O)[C@H]4CC[C@H](O)CC4)C3)CC2)nc(C(C)(C)C)n1.O=C(O)C(F)(F)F ?
+++ (+++ >50)

---

I'd appreciate it if you could supply microsomal CLint at 0.5 μM values for the items below.
# measurement protocol: Determination of the microsomal half-life / microsomal clearance
# Format: in vitro ADME
# condition description: pH 7.4; human liver microsomes, 0.5 μM test substance, 0.25 mg protein/ml, NADPH, 37° C.; read-out: Human mCl (mikrosomal clearance)

Which microsomal CLint at 0.5 μM value is on record for COCCc1cc(N2CCN(CC[C@H]3CC[C@H](NC(=O)[C@H]4CC[C@H](O)CC4)CC3)CC2)nc(C(C)(C)C)n1 [Compound 2] ?
20 to 120 µL/min/mg

Find the recorded microsomal CLint at 0.5 μM belonging to CC(C)(C)c1nc(C2CCC2)cc(N2CCN(CC[C@H]3C[C@@H](NC(=O)[C@H]4CC[C@H](O)CC4)C3)CC2)n1 [Compound 10] and report it.
20 to 120 µL/min/mg

Look at this molecule and give its reported microsomal CLint at 0.5 μM. CC(C)(C)c1nc(C(F)F)cc(N2CCN(CCC3CCC(NC(=O)C4CCC(O)CC4)CC3)CC2)n1 (stereo not shown) [Compound 29]
20 to 120 µL/min/mg

Endpoint output: microsomal CLint at 0.5 μM of CC(C)(C)c1nc(C2CCC2)cc(N2CCN(CC[C@H]3CC[C@H](NC(=O)[C@H]4CC[C@@H](O)CC4)CC3)CC2)n1.O=C(O)C(F)(F)F [Compound 14] . Value?
> 120 µL/min/mg

Which microsomal CLint at 0.5 μM value belongs to COCCc1cc(N2CCN(CC[C@H]3C[C@@H](NC(=O)[C@H]4CC[C@@H](O)CC4)C3)CC2)nc(C(C)(C)C)n1 [Compound 12] ?
20 to 120 µL/min/mg

Quick one: microsomal CLint at 0.5 μM of CC(C)(C)c1nc(C2CCC2)cc(N2CCN(CC[C@H]3CC[C@H](NC(=O)[C@H]4C[C@@H](O)C4)CC3)CC2)n1 [Compound 13] ?
> 120 µL/min/mg

Request the reported microsomal CLint at 0.5 μM associated with COCCc1cc(N2CCN(CC[C@H]3CC[C@H](NC(=O)C4CC(O)(C(F)(F)F)C4)CC3)CC2)nc(C(C)(C)C)n1 (relative stereo) [Compound 25]
> 120 µL/min/mg
